melting point values by entry
MEASUREMENT_KIND: melting point

# SUBSTANCE_SMILES, REPORTED_MEASUREMENT
data = [
    ("COC(=O)c1ccc(NC(=O)Nc2ccccc2)c(O)c1", "188.4 to 188.8 °C"),
    ("O=C(Nc1ccc([N+](=O)[O-])cc1O)Nc1ccccc1OCc1ccncc1", "189.3 to 189.7 °C"),
    ("NC(=O)c1ccc(NC(=O)Nc2ccccc2)c(O)c1", "106.8 to 107.1 °C"),
    ("O=C(Nc1ccccc1Cl)Nc1cccc(C(F)(F)F)c1O", "179.3 °C"),
    ("O=C(Nc1ccc([N+](=O)[O-])cc1O)Nc1ccccc1NC(=O)c1ccccc1", "188.7 to 189.3 °C"),
    ("O=C(Nc1ccccc1)Nc1ccccc1S", "194.5 °C"),
    ("COC(=O)Nc1ccccc1NC(=O)Nc1ccc([N+](=O)[O-])cc1O", "199.3 to 199.6 °C"),
    ("O=C(Nc1ccccc1-c1ccccc1)Nc1cccc(C(F)(F)F)c1O", "136.7 to 137.3 °C"),
    ("O=C(Nc1ccccc1)Nc1ccc(F)cc1O", "195.5 to 195.7 °C"),
    ("N#Cc1ccc(NC(=O)Nc2ccccc2NCc2ccccc2)c(O)c1", "108.8 to 109.4 °C"),
]

----------
melting point values by entry
MEASUREMENT_KIND: melting point

# SUBSTANCE_SMILES, REPORTED_MEASUREMENT
data = [
    ("O=C(Nc1ccc([N+](=O)[O-])cc1O)Nc1ccccc1OCc1cccnc1", "185.4 to 186.2 °C"),
    ("COc1ccsc1NC(=O)Nc1cc([N+](=O)[O-])ccc1O", "172.6 to 173 °C"),
    ("NC(=O)N(c1ccc([N+](=O)[O-])cc1O)c1ccccc1OCc1ccccn1", "193.5 to 194 °C"),
    ("O=C(Nc1ccc([N+](=O)[O-])cc1O)Nc1ccccc1Sc1ccccc1[N+](=O)[O-]", "204.1 to 205.3 °C"),
    ("O=C(Nc1ccc([N+](=O)[O-])cc1O)Nc1ccccc1NS(=O)(=O)c1cccs1", "149 to 149.6 °C"),
    ("O=C(NCCO)Nc1ccc([N+](=O)[O-])cc1O", "168.2 to 168.8 °C"),
    ("O=C(Nc1cccc(C(F)(F)F)c1O)Nc1cccc(Cl)c1Cl", "204.3 to 205.2 °C"),
]
